Provide the recorded EC50 for the entries that follow.
tested-system: T1, EBOV sGP (EBOV (Ebola Zaire), UniProt P60170 33-324)
T1 chain: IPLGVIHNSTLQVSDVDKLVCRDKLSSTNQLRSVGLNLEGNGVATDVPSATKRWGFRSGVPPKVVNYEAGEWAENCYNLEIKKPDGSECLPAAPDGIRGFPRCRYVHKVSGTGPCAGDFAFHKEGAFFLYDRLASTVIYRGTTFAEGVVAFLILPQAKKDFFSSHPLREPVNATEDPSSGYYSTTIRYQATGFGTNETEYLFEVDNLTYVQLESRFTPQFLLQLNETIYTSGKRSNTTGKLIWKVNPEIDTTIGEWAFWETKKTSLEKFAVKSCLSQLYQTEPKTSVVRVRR
measurement-description: ELISA
Answers are plain numbers, in µg/mL.

EBOV49 (antibody, V domains shown) VH: EVQLVESGGGLVQPGGSLRLSCAASGFTFSSYEINWVRQAPGRGLEWVSYISSSGRTIYYADSVKGRFTISRDNAKNSLYLQMNSLRAEDTAVYYCAREPYVDGILYGAGDSYFDYWGQGTLVTVSS VL: DIQMTQSPSSLSASVGDRVTITCRASQSISNYLNWYQQKPGKAPKVLIYAASSLQSGVSSRFSGSGSGTDFTLTISSLQPEDFATYFCQQSYNTPPVTFGQGTRLEIK :: 0.061
EBOV62 (antibody, V domains shown) VH: EVQLVESGGGLVQPGGSLRLSCAASGFTFSSYWMSWVRQAPGKGLEWVANIKQDGSAKYYVDSVKGRFTISRDNAKNSLYLQMNSLRAEDTAVYYCARDGLLGISDLLYPIYYFDYWGQGTLVTVSS VL: DIVMTQSPSSLSASVGDRVTITCRASQNIGSYLNWYQQKPGKAPNLLMYAASSLQSGVPSRFSGSGSGTDFTLTITSLQPEDFATYYCQQSYSIPRTFGQGTQLEIK :: 0.051

Next up:
# query: EC50 of entry EBOV52 (antibody, V domains shown) VH: QVQLQESGPGLVKPSETLSLNCTVSGGSISSYYWSWIRQPPGKGLEWIGYIYDSGRTKYNPSLKSRVTISLDTSKNQFSLKLSSVTAADTAVYYCASLGPFDKLWFGELLPGWFDPWGQGTLVTVSS VL: EIVLTQSPATLSLSPGGRATLSCRASQSVHNYLAWYQQKSGQAPRLLIYDASNRATGIPARFSGSGSGTDFTLTISSLEPDDFAVYYCQHRSNWLTFGGGTKVEIK
0.082

Origin of the recorded values: patent US20200200749A1
